target: human TGR5 (h-TGR5) (Homo sapiens); construct: expressed in transfected cells; assay: TGR5/CRE-Luciferiase Assay (HEK 293 hTGR5/CRE-Luc cells); assay type: cell-based; conditions: h-TGR5 CRE-Luc EC50, Table 1; read-out: CRE-Luc (EC50)
Sequence (Q8TDU6 whole entry): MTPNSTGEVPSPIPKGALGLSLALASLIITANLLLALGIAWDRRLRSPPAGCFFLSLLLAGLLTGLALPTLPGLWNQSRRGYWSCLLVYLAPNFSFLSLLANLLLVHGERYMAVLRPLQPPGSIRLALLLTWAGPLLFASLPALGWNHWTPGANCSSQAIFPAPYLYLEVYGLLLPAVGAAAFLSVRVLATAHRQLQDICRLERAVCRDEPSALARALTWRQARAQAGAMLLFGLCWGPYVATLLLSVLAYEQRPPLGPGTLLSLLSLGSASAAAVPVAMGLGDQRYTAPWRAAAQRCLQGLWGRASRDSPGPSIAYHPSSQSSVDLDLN
Listed next: entries and their corresponding EC50.

Please review the following examples before continuing.
COc1cc(C(C)(C)c2cnc(SCc3c(F)ccc(S(N)(=O)=O)c3F)n2-c2ccc(F)cc2)ccc1Cl    < 100 nM
COc1cc(C(C)(C)c2cnc(SCc3c(F)cc(S(=O)(=O)O)cc3Cl)n2-c2ccc(F)cc2)ccc1Cl    < 100 nM
CCOC(=O)NS(=O)(=O)c1ccc(CSc2ncc(C(C)(C)c3ccc(Cl)c(OC)c3)n2-c2ccc(F)cc2)c(F)c1    < 100 nM

## Task Looking for the measured EC50 of COc1cc(C(C)(C)c2c(Cl)nc(SCC3CCN(c4nnn[nH]4)CC3)n2-c2ccc(F)cc2)ccc1Cl , can you help?
## Result < 100 nM

## Task COc1ccc(-c2cnc(SCc3c(F)cccc3Cl)n2-c2ccc(F)cc2)cc1OC , same question.
## Result 1000 to 10000 nM

## Task What do you have for CC(C)(c1ccc(Cl)c(Cl)c1)c1cnc(SCc2ccc(C(N)=O)c(F)c2)n1-c1ccc(F)cc1 ?
## Result 100 to 1000 nM

## Task // query: CC(C)(c1ccc(Cl)c(Cl)c1)c1cnc(SCc2ccc(C(=O)NCCc3c[nH]cn3)cc2F)n1-c1ccc(F)cc1
## Result 100 to 1000 nM

## Task Also CCOC(=O)NS(=O)(=O)c1ccc(CSc2ncc(C(C)(C)c3ccc(Cl)c(Cl)c3)n2-c2ccc(F)c(OC)c2)c(Cl)c1 ?
## Result 100 to 1000 nM
